Experiment: qHTS assay to identify small molecule antagonists of the estrogen receptor alpha (ER-alpha) signaling pathway using the BG1 cell line - cell viability counter screen (AID 743081);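 note: compound given together with 17beta-estradiol as the ER stimulus; nearly all actives have a fitted effect of over 45% in size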
Details: BG1Luc4E2 viability, CellTiter-Fluor, 22 h; series mostly up to 70.3 µM
Results filed as inconclusive are left out. The source made the active and inactive calls. Calls come from the whole dose curve; as a rule, active = well fitted cell-killing curve with a large enough effect in the repeat runs; inconclusive = weak or mixed curves, or effect the other way; inactive = flat fitted curve, though single readings scatter.
Outcome codes: active, inactive

compound: C=C1C(CCl)(CCl)C2(Cl)C(Cl)C(Cl)C1(Cl)C2(Cl)Cl (stereo unspecified)
classification: inactive
//
compound: CCc1ncnc2cc(OC)c(OC)cc12
classification: inactive
//
compound: CCN1\C(=C/C=C/C=C/c2sc3ccccc3[n+]2CC)Sc2ccccc21
classification: active
//
compound: O=C[C@H](O)[C@@H](O)[C@@H](O)[C@H](O)CO
classification: inactive
//
compound: O=C(CCCN1CCN2CCCC2C1)c1ccc(F)cc1 (stereo unspecified)
classification: inactive
//
compound: CCCCCCCCCCCCCCCCC(C(=O)O)C(O)(CC(=O)O)C(=O)O (stereo unspecified)
classification: inactive

* * *

Assay: Caspase-3/7 induction in HepG2 cells by small molecules, qHTS cell viability counter screen (AID 1346981); note: nearly all actives have a fitted effect of over 30% in size
Settings: CellTiter-Fluor fluorescence, 17 h; series mostly up to 92.4 µM
Inconclusive results are not listed. Calls of active or inactive are those of the source. Calls come from the whole dose curve; as a rule, active = well fitted cell-killing curve with a large enough effect in the repeat runs; inconclusive = weak or mixed curves, or effect the other way; inactive = flat fitted curve, though single readings scatter.
Outcome codes: true = active, false = inactive

compound: Cc1ccc(S(=O)(=O)C(I)I)cc1
classification: true
--
compound: Nc1ccc2c(S(=O)(=O)O)cccc2c1S(=O)(=O)O
classification: false
--
compound: CN1CCN(C)CC1
classification: false
--
compound: CC(C)=NNC(N)=S
classification: false
--
compound: C=Cc1ccncc1
classification: false
--
compound: CCCCCc1ccc(O)cc1
classification: false
--
compound: N#Cc1nc(Cl)c(Cl)c(Cl)c1Cl
classification: true
--
compound: CCCC(C)C=O (stereo not drawn)
classification: false
--
compound: C/C=C/C(=O)OCC(C)C
classification: false
--
compound: C/C(=N\[Si](C)(C)C)O[Si](C)(C)C
classification: false
--
compound: Cc1c[nH]c(=O)[nH]c1=O
classification: false
--
compound: CC(CC(C)(C)C)CC(C)(C)CC(C)(C)C (stereo not drawn)
classification: false
--
compound: CCc1cccc(CC)c1
classification: false
--
compound: Cc1ccc(Cl)c(N)c1Cl
classification: false
--
compound: O=C1OC(=O)c2cc(-c3ccc4c(c3)C(=O)OC4=O)ccc21
classification: false
--
compound: Oc1ccc2c(c1)CCC2
classification: false
--
compound: CCN(CC)c1ccc2c(c1)Oc1cc(N(CC)CC)ccc1C21OC(=O)c2ccccc21
classification: true
--
compound: COC(=O)c1ccc([N+](=O)[O-])cc1
classification: false
--
compound: Nc1ccc(F)c([N+](=O)[O-])c1
classification: false
--
compound: CC(C)(C)c1cc(CCC(=O)OCCSCCOC(=O)CCc2cc(C(C)(C)C)c(O)c(C(C)(C)C)c2)cc(C(C)(C)C)c1O
classification: false
--
compound: Oc1ccc(C2(c3ccc(O)c(C4CCCCC4)c3)CCCCC2)cc1C1CCCCC1
classification: true
--
compound: Nc1c(Br)cc([N+](=O)[O-])cc1Br
classification: false
--
compound: C/C(=C\c1ccc(C(=O)O)cc1)c1ccc2c(c1)C(C)(C)CCC2(C)C
classification: false
--
compound: [Cl][Sc]([Cl])[Cl]
classification: false
--
compound: C=CC(C)(C)O
classification: false
--
compound: CC(=O)[C@]1(O)Cc2c(O)c3c(c(O)c2[C@@H](O[C@H]2C[C@H](N)[C@H](O)[C@H](C)O2)C1)C(=O)c1ccccc1C3=O
classification: true
--
compound: CCCCC/C=C\C=C\C(=O)OCC
classification: false
--
compound: CC(=O)Nc1ccc(N=Nc2cc(C)ccc2O)cc1
classification: true

* * *

Assay: qHTS assay for identifying genotoxic compounds that show differential cytotoxicity against isogenic chicken DT40 cell lines with known DNA damage response pathways - wild type cell line (AID 743012); note: nearly all actives have a fitted effect of over 60% in size
Details: DT40 wild type chicken cells viability, CellTiter-Glo, 40 h; series mostly up to 68.4 µM
Results filed as inconclusive are left out. Activity calls are given as the source filed them. The call rests on the fitted dose curve; in most records, active means well fitted cell-killing curve with a large enough effect in the repeat runs; inconclusive means weak or mixed curves, or effect the other way; inactive means no such curve, though single readings can be large or run the other way.
Outcome codes: active, inactive

compound: C=CCN1C(=O)C(CC(C)C)NC1=S (configuration not stated)
classification: inactive
--
compound: CCC[C@@H]1C[C@@H](C(=O)N[C@@H]([C@H]2O[C@H](SC)[C@H](OP(=O)(O)O)[C@@H](O)[C@H]2O)[C@H](C)Cl)N(C)C1
classification: inactive
--
compound: CCCCCCCCCCCCCCCC(=O)OC[C@H](COP(=O)([O-])OCC[N+](C)(C)C)OC(=O)CCCCCCCCCCCCCCC
classification: inactive
--
compound: Nc1nc(/C(=C/CC(=O)O)C(=O)N[C@@H]2C(=O)N3C(C(=O)O)=CCS[C@H]23)cs1
classification: inactive
--
compound: COc1cccc(-c2ccc(/C=C\CN3CCCCCC3)cc2Cl)c1
classification: active
--
compound: CCCCCCCC/C=C\CCCCCCCC(=O)N(CCO)CCO
classification: active
--
compound: CCN(CC)C(=O)[C@]1(c2ccccc2)C[C@@H]1CN
classification: inactive
--
compound: CCCCCCCCCCCCCC(=O)OCC(COP(=O)([O-])OCC[N+](C)(C)C)OC(=O)CCCCCCCCCCCCC (configuration not stated)
classification: inactive
--
compound: CCOC(=O)COc1ccc2c(=O)cc(-c3ccccc3)oc2c1
classification: active
--
compound: CCN(CC)CC#CCOC(=O)C(O)(c1ccccc1)C1CCCCC1 (configuration not stated)
classification: active
--
compound: N#Cc1c(N(CC(=O)O)CC(=O)O)sc(C(=O)O)c1CC(=O)O
classification: inactive
--
compound: CC(CNC(=O)c1cccnc1)NC(=O)c1cccnc1 (configuration not stated)
classification: inactive
--
compound: CCN(CC)CCNC(=O)c1ccc(NS(C)(=O)=O)cc1
classification: inactive
--
compound: CC(=O)Oc1cc(C(F)(F)F)ccc1C(=O)O
classification: inactive
--
compound: C=CC(N)CCC(=O)O (configuration not stated)
classification: inactive
--
compound: CNC(=O)OCc1cccc(COC(=O)NC)n1
classification: inactive
--
compound: C[N+]1(CCCCC[N+]2(C)CCCC2)CCCC1
classification: inactive
--
compound: CCN(CC)CCn1c(=O)c(Cc2ccc(OC)cc2)nc2ccccc21
classification: active
--
compound: CC(=O)OCC1=C(C(=O)O)N2C(=O)[C@@H](NC(=O)Cc3ccccc3)[C@H]2SC1
classification: inactive
--
compound: O=C(O)COc1ccccc1/C=N/NC(=O)c1ccncc1
classification: inactive
--
compound: c1ccc2cc3c4ccccc4c4ccccc4c3cc2c1
classification: inactive
--
compound: CCCCCCCCCCCCCCCCCCOCC(COP(=O)([O-])OCC[N+](C)(C)C)OC (configuration not stated)
classification: inactive

* * *

Target: Androgen receptor (Homo sapiens) (UniProt P10275)
Sequence (P10275 whole entry, looked up): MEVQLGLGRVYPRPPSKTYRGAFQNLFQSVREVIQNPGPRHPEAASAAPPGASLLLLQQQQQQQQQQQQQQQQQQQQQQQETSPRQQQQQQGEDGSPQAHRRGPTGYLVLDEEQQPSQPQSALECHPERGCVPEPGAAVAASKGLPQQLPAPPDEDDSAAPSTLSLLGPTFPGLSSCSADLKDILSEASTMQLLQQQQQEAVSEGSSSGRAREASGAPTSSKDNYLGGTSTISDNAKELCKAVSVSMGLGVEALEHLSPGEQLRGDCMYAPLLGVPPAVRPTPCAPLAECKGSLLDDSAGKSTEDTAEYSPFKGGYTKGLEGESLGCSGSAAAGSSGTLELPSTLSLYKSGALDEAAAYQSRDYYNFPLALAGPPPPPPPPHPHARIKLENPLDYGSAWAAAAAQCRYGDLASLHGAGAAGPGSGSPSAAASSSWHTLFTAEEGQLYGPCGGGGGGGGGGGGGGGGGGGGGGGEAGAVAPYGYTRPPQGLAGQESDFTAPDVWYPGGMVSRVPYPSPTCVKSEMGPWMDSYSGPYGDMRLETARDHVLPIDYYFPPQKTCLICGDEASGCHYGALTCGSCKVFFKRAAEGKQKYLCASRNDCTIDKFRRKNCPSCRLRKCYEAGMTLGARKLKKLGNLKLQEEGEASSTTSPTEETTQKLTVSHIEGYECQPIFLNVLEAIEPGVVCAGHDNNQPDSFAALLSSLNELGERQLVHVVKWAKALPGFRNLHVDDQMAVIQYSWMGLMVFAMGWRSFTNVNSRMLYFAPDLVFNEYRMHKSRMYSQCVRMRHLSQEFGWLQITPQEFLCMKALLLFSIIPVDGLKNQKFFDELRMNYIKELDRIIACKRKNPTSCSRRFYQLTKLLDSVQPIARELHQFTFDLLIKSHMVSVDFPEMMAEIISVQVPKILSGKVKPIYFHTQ
Assay: qHTS assay to identify small molecule agonists of the androgen receptor (AR) signaling pathway using the MDA cell line (AID 743040; note: nearly all actives have a fitted effect of over 20% in size)
Settings: MDA-kb2 AR-luc cells, MMTV luciferase, 16 h; series mostly up to 70.3 µM
Active and inactive are the calls of the source. Calls follow the shape of the dose curve; as a rule, active = well fitted activation curve with a large enough effect in the repeat runs; inconclusive = weak or mixed curves; inactive = flat fitted curve, though single readings scatter.
Outcome codes: 1.0 (active), 0.0 (inactive)

compound: CCc1ncnc2cc(OC)c(OC)cc12
classification: 0.0

compound: CC12CCC(C1)C(C)(C)C2=O (centres undefined)
classification: 0.0

compound: CC1(C)S[C@@H]2[C@H](NC(=O)[C@H](N)c3ccc(O)cc3)C(=O)N2[C@H]1C(=O)O
classification: 0.0

compound: CC(C)c1ncc([N+](=O)[O-])n1C
classification: 0.0

compound: CCCCCCCCCCCCCCCCC(C(=O)O)C(O)(CC(=O)O)C(=O)O (centres undefined)
classification: 0.0

compound: CC(=O)OCC1=C(C(=O)O)N2C(=O)[C@@H](NC(=O)Cc3ccccc3)[C@H]2SC1
classification: 0.0

compound: COc1cccc2c1[C@@H]1CN(CCCCn3c(=O)[nH]c4c(sc5ncc(-c6ccccc6)nc54)c3=O)C[C@@H]1CO2
classification: 0.0

compound: CCOC(=O)[C@H](CCc1ccccc1)N[C@@H](C)C(=O)N1[C@H](C(=O)O)C[C@H]2CCCC[C@@H]21
classification: 0.0

compound: NC(N)=NCC1COC2(CCCCC2)O1 (centres undefined)
classification: 0.0

compound: CN(C)CCc1c[nH]c2ccc(Cn3cncn3)cc12
classification: 0.0

compound: C[C@@H]1O[C@@H](OC[C@H]2O[C@@H](Oc3c(-c4ccc(OCCO)c(OCCO)c4)oc4cc(OCCO)cc(O)c4c3=O)[C@H](O)[C@@H](O)[C@@H]2O)[C@H](O)[C@H](O)[C@H]1O
classification: 0.0

compound: CCCCCCCCCCCCCCCC(=O)OC[C@H](COP(=O)([O-])OCC[N+](C)(C)C)OC(=O)CCCCCCCCCCCCCCC
classification: 0.0

compound: CCOc1cc(CC(=O)N[C@@H](CC(C)C)c2ccccc2N2CCCCC2)ccc1C(=O)O
classification: 1.0

compound: CCCC(=O)c1cc(O)c(O)cc1O
classification: 0.0

compound: O=C(O)/C=C/C(O)c1ccc(Cl)cc1 (centres undefined)
classification: 0.0

compound: O=C(O)COc1ccc(C(=O)c2cccs2)c(Cl)c1Cl
classification: 0.0

compound: CC[C@@H](C(=O)[C@@H](C)[C@@H](O)[C@H](C)CCc1ccc(C)c(O)c1C(=O)O)[C@H]1O[C@](CC)([C@H]2CC[C@](O)(CC)[C@H](C)O2)C[C@@H]1C
classification: 1.0

compound: C=CCc1cc(S(=O)(=O)c2ccc(O)c(CC=C)c2)ccc1O
classification: 0.0

compound: CC[C@H](C)C(=O)O[C@H]1CCC=C2C=C[C@H](C)[C@H](CC[C@@H]3C[C@@H](O)CC(=O)O3)[C@H]21
classification: 0.0
